Hi there, I'd appreciate the recorded melting point for every entry that follows.

Short answer for "COc1ccccc1Nc1ncccc1[N+](=O)[O-]" : melting point was 151 to 153 °C

Short answer for "NC(=S)Nc1ccc2ccccc2c1" : melting point was 190 to 192 °C

Short answer for CCOCCOc1ccc(OCC(O)CNCCNC(=O)N2CCOCC2)c(Br)c1 (stereo not given) : melting point was 98 °C

Short answer for "N#Cc1cnc2cc3c(cc2c1Cl)ncn3CCN1CCOCC1" : melting point was 205 to 207 °C

Short answer for Cn1c(C(F)(F)F)cc(=O)n(-c2ccc3snc(C4OCC(O)(CBr)CO4)c3c2)c1=O (stereo not given) : melting point was 105 to 110 °C

Short answer for "COC(=O)CCCCCCCCCCCCCCC=O" : melting point was 41.5 °C

Short answer for CC1CC(=O)NN=C1c1ccc2c(c1)CCN2 (stereo not given) : melting point was 187 to 189 °C

Short answer for Cc1c(F)c(N2CCC(N)C2)nc2c1c(=O)c(C(=O)O)cn2-c1ccc(F)cc1F (stereo not given) : melting point was 260 °C

Short answer for "CC(=O)OC1=C(c2nnn(Cc3ccccc3)n2)N(C)S(=O)(=O)c2ccccc21" : melting point was 173 °C

Short answer for "Cc1cc(C)c(N2CCCc3c2nn(C)c3-c2ccccc2C(F)(F)F)c(C)c1" : melting point was 59 to 63 °C

Short answer for "CCCCCCCCOc1cc(-n2c(=O)cc(C(F)(F)F)n(C)c2=O)c(F)cc1Cl" : melting point was 60 to 63 °C

Short answer for O=C1Nc2cccc(-c3cncnc3)c2C12COc1cc3c(cc12)OCO3 (stereo not given) : melting point was 185 to 187 °C

Short answer for Cc1ccc2c(c1)N(CC(=O)c1cccs1)C(=O)C(NC(=O)Nc1cccc(C(=O)O)c1)CN2C(=O)C(C)(C)C (stereo not given) : melting point was 198 to 206 °C

Short answer for CN1CCN(C(=O)OC2c3ccc(C(F)(F)F)cc3C(=O)N2c2ccc3ccc(Cl)nc3n2)CC1 (stereo not given) : melting point was 219 °C

Short answer for CCCCCN1C(=O)C2(COc3cc4c(cc32)OCO4)c2cccnc21 (stereo not given) : melting point was 126 to 127 °C

Short answer for "CC(=S)c1cncn1C(c1ccccc1)c1ccccc1" : melting point was 98 °C

Short answer for "N#Cc1cc(-c2cccc(Cl)c2)ccc1N" : melting point was 118 to 119 °C

Short answer for "c1ccc2oc(-c3ccc(-c4nc5ccccc5o4)cc3)nc2c1" : melting point was 318 to 328 °C

Short answer for "CSc1nc(N)c(C=O)s1" : melting point was 159 to 162 °C

Short answer for "ClCCCCCOc1ccccc1OCCCCCCl" : melting point was 61 °C

Short answer for "O=C(O)C[C@H](C(=O)N[C@H](CO)Cc1ccccc1)n1cc(-c2ccc(-c3ccccc3)cc2)cn1" : melting point was 154 to 159 °C

Short answer for "CCc1nc2cc(Nc3nccc(-c4ccc(N5CCN(CC)CC5)nc4)n3)ccc2o1" : melting point was 174 to 176 °C

Short answer for "O=c1oc(=O)n(CCc2ccccc2)c2ncccc12" : melting point was 147 to 149 °C

Short answer for CC1CCCN1CCCN1CCN(C2CCN(Cc3ccccc3)CC2)C1=C(C#N)C#N (stereo not given) : melting point was 130 to 131 °C

Short answer for "CC(=O)OCC(=O)NCc1ccc(-c2csc(N)n2)s1" : melting point was 149 to 150 °C

Short answer for CC1(C)CC1C(=O)NC(=CCCCSc1ncccc1O)C(=O)O (stereo not given) : melting point was > 70 °C

Short answer for "CCc1c(C)nc2ccc(Cl)cn2c1=O" : melting point was 114 to 116 °C

Short answer for "CNC(=O)c1ccccc1Nc1nc(Nc2ccc(OC)c3c2N(C)C(=O)CCC3)ncc1Cl" : melting point was 165 to 167 °C

Short answer for CCCCCCC1CC(c2ccc(CCCC)cc2)C(=O)O1 (stereo not given) : melting point was 37.7 °C

Short answer for "Cc1cc(-c2ccc(C(F)(F)F)nc2)nc(-c2ccnc(-c3cccc(S(N)(=O)=O)c3)c2)n1" : melting point was 255 °C

Short answer for "CC(C)Nc1cccnc1N1CCN(C(=O)c2ccc(C(=O)N(CCO)CCO)cn2)CC1" : melting point was 130 to 132 °C

Short answer for "CC(C)(C)OC(=O)N1CCc2c(n(CCO)c3c(Cl)c(Cl)ccc23)CC1" : melting point was 117 to 120 °C

Short answer for "c1ccc(Oc2ccc(Nc3ncnc4cnc(N5CCCCC5)nc34)cc2)cc1" : melting point was 175 °C

Short answer for "CCC1(CCCN=[N+]=[N-])C(=O)NC(=O)NC1=O" : melting point was 182 to 184 °C

Short answer for "CC(=O)Nc1ccc(C=CC(=O)O)c(NC(=O)NC(=O)c2cc(F)c(F)cc2Cl)c1" : melting point was 196 °C

Short answer for "CCOC(=O)[C@@H](CO)NCc1c(N)cccc1Cl" : melting point was 73 to 75 °C

Short answer for "CN(C)C(=O)n1nc(-c2ccccc2)c(-c2ccccc2)c(C#N)c1=O" : melting point was 231 °C

Short answer for "CON(C)C(=O)c1cc(-n2c(Cl)nc(C(F)(F)F)cc2=O)c(F)cc1Cl" : melting point was 183 °C

Short answer for "CN1C(=O)[C@H](NC(=O)Cc2ccc(C(F)(F)F)cc2)N=C(c2ccccc2)c2ccccc21" : melting point was 224 to 226 °C

Short answer for "NC(=O)c1nc(-c2cccnc2Cl)nc2c1[nH]c(=O)n2-c1ccccc1" : melting point was 283 to 286 °C

====

Hi there, I'd appreciate the recorded melting point for every entry that follows.

Short answer for O=C1N[C@H](Cc2ccc(C(F)(F)F)cc2)[C@H](c2ccc(F)cc2F)O1 (racemic) : melting point was 147 to 148 °C

Short answer for CCOC(=O)C1C(=O)N(CC)c2cc3c(cc21)OCC3 (configuration not stated) : melting point was 82 to 84 °C

Short answer for CC(O)(CCBr)C1CCCCC1 (configuration not stated) : melting point was 31 to 33 °C

Short answer for CC(C)NC(C(N)=S)c1ccccc1 (configuration not stated) : melting point was 98.6 °C

Short answer for CC(=O)NCC1CN(c2ccc(S(=O)(=O)CCO)c(F)c2)C(=O)O1 (configuration not stated) : melting point was 162 to 163 °C

Short answer for "CC(C)(C)OC(=O)N1CCc2c(n(CCO)c3ccc(Cl)c(Cl)c23)CC1" : melting point was 174 to 176 °C

Short answer for "O=Cc1ccc(C=Cc2ccc3ccccc3n2)cc1" : melting point was 112 to 113 °C

Short answer for "CC[C@H](COC)n1cc(Br)nc(N2CCc3cc(Cl)cc(Cl)c32)c1=O" : melting point was 150 to 152 °C

Short answer for "CC1(C(=O)c2c[nH]c3ncc(-c4cccc(N5CCN(S(C)(=O)=O)CC5)c4)nc23)CCCCC1" : melting point was 230 to 231 °C

Short answer for "CC(C)(C)C(=O)Nc1ccc2c(c1)ncn1c(=O)c(C(=O)O)cnc21" : melting point was 252 to 256 °C

Short answer for "COc1nc(Cl)cc2nccn12" : melting point was 115 to 118 °C

Short answer for CC(=O)Nc1c(C(=O)C2CCCC(C)C2)[nH]c2cc(Cl)ccc12 (configuration not stated) : melting point was 202 to 203 °C

Short answer for NC(=O)C(c1ccccc1Cl)N1CCc2sccc2C1 (configuration not stated) : melting point was 124 to 126 °C

Short answer for "COc1ccc(CNC(=S)N2CCN(c3ncnc4cc(OC)c(OC)cc34)CC2)cc1" : melting point was 201 to 204 °C

Short answer for Cc1cc(C2CC(C)(C)CC(C)(C)C2(O)C#C[Si](C)(C)C)ccc1F (configuration not stated) : melting point was 76 to 78 °C

Short answer for CCCCC1C(C(=O)OCC)C(O)(C(F)(F)F)NC(O)(C(F)(F)F)C1C(=O)OCC (configuration not stated) : melting point was 77 to 80 °C

Short answer for "CCCCn1cc([N+](=O)[O-])c(=O)c2cnc(-c3ccncc3)nc21" : melting point was 240 to 241 °C

Short answer for "CCSc1cc(C=NO)c(Cl)cn1" : melting point was 128 to 130 °C

Short answer for "Nn1c(C2CC2)cc(-c2ccc(C(F)(F)F)cc2)cc1=O" : melting point was 132 °C

Short answer for "N#Cc1c(N2CCCCC2)cc(-c2ccccc2)c2c1Cc1ccccc1-2" : melting point was 140 to 141 °C

Short answer for "CC(C)(O)c1ccc(CNC(=O)c2cccnc2Oc2cccc(S(C)(=O)=O)c2)cc1" : melting point was 51 to 53 °C

Short answer for CCCCC(CC)Cn1c(=O)nc(N(C)C)n(C)c1=O (configuration not stated) : melting point was 74 to 75 °C

====

Hi there, I'd appreciate the recorded melting point for every entry that follows.

Short answer for "COc1cc2c(cc1OC)C(c1sc(O)nc1C)=NCC2" : melting point was 114 to 120 °C

Short answer for COC(=O)C(Oc1ccc(Cl)cc1)c1ccc(Oc2ccc(Cl)cc2)cc1 (stereo unspecified) : melting point was 100 to 102 °C

Short answer for "O=C(Nc1ccc(C(=O)N2Cc3ccccc3Cc3ccccc32)cc1)c1c(Cl)cccc1Cl" : melting point was 257 to 259 °C

Short answer for "CCOC(=O)CN(c1c([N+](=O)[O-])cc([N+](=O)[O-])c2ccccc12)S(=O)(=O)c1ccc(C)cc1" : melting point was 106 to 107 °C

Short answer for "N#Cc1ccc(S)c(C#N)c1" : melting point was 180 °C

Short answer for "NC(=S)Nc1nncs1" : melting point was 253 °C
